B1: library; numbered along this chain (parent)
chain: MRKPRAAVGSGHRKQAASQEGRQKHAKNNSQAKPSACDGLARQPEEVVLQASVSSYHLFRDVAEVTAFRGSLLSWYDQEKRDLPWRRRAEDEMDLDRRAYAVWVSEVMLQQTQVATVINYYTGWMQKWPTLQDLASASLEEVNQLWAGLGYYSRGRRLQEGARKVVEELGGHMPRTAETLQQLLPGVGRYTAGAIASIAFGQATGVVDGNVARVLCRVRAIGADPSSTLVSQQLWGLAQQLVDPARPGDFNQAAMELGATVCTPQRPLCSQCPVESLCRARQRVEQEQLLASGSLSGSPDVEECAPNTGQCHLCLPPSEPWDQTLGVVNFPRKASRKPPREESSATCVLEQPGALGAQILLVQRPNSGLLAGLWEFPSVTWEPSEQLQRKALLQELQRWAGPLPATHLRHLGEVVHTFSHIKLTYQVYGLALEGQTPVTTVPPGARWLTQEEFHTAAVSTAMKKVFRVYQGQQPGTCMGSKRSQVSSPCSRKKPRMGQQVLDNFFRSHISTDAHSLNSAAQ

variants of: B1; test: 8OG:A repair function score (normalized; synonymous = 0, nonsense = -1) (normalized log-likelihood score); higher = more repair activity (WT-like); details: with 8OG:A DNA repair reporter (GFP) in HEK-293 MUTYH KO cells;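 note: cells sorted at 72 h after reporter transfection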
readoutLabel: 8OG:A repair function score
When you answer, write just the number.

Answered cases to consult:
S138D ... -0.192
G309D ... -0.000739
S197D ... -1.04

Then there is this variant:
Memo: S231W , reported 8OG:A repair function score: 0.173
